- System: XIP peptide (Xip251-270)
- Protocol description: compounds binding XIP fragment 251-270 – biochemical, small-molecule microarray, fluorescence 635/667 nm, 0.5 µg/mL protein, primary screen (AID 1183)
- Experimental conditions: fluorescence 635 nm, higher = more signal
Measure name: composite z-score
Answers are plain numbers.

Query: # input compound: C=C(C(=O)CC[C@H](OC(=O)c1ccccc1-c1ccccc1C(=O)O)c1cccc(OCCO)c1)C(C)C ; wanted: its composite z-score
Result: 0.232

Hello, I would appreciate it if you could give composite z-score for each entry below.
1. CCCCN1CC=CC23O[C@@H]4/C=C\CCC(C)OC(=O)C4[C@H]2C(=O)N(CCCO)[C@@H]3C1=O (some centres undefined)
2. CCOC(=O)C[C@H]1[C@H](OC(=O)c2cc3ccccc3oc2=O)[C@@H](NC(=O)CC(C)C)c2cc(OCCCO)ccc2N1C(=O)c1ccc2ccccc2n1
3. CN(C)C(=O)[C@]1(CCC(=O)OC(C)(C)C)N=C(c2ccc(OCCCO)cc2)O[C@@H]1c1ccccc1CN=[N+]=[N-]
4. COc1cc(NN2C(C(O)c3cc(OC)c(OC)c(OC)c3)C=CC3C(=O)N(C)C(=O)C32)cc(OC)c1OC (centres undefined)
5. O=C1[C@H]2C=C(I)[C@H](C[C@@H]2OCCOCCO)[C@@]12CO2
6. CO[C@H]1O[C@H](CO)[C@@H](OC(=O)Nc2ccc(Br)cc2)[C@@H]2OC(=O)[C@@H](Cc3ccccc3)C/C=C/C[C@H](Cc3ccccc3)C(=O)O[C@@H]12

Result:
0.214
0.46
0.649
0.438
-0.0714
0.693
